Target: SMARCA2(iso.A) (Homo sapiens)
Sequence (P51531 1378-1506 limits assumed): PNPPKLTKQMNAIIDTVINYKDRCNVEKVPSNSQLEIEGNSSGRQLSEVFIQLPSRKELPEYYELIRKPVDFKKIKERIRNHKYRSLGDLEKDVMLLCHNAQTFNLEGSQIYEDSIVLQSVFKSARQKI
Experiment: BROMOscan ligand-binding assay
Settings: KD, SMARCA2(iso.A)
Test readout: pKd
// pKd here means minus log10 of the molar concentration (mol/L)

Answer with the recorded pKd for the molecule listed here: O=C(O)c1ccccc1O [Salicylic Acid]
3.02

====

Biological target: TRIM24 (Homo sapiens)
Sequence (O15164 899-1004 limits assumed): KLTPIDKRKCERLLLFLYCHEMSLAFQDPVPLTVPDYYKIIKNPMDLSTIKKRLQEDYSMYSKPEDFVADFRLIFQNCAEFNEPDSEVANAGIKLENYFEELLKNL
Test: BROMOscan ligand-binding assay
Details: KD (BROMOscan), sheet prints no unit (nM)
Test readout: Kd

Answer with the recorded Kd for the molecule listed here: O=C(C=CN1CC2CC1CN2c1ccccn1)c1ccccc1O (stereo not shown) [PFI-3]
> 30000 nM

====

Target: ATAD2B (Homo sapiens, UniProt Q9ULI0)
Sequence (Q9ULI0 951-1066 limits assumed): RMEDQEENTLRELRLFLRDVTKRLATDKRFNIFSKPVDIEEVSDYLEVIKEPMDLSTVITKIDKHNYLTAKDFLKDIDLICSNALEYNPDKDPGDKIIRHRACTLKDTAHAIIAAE
Experiment: BROMOscan ligand-binding assay
Conditions: KD, BROMOscan Gene Symbol ATAD2B
Test readout: Kd (µM)
Give a bare numeral; the unit µM is implied.

Compound: CCC(=O)N1CCOc2c(cc(-c3ccc(OC)c(OC)c3)cc2OCC2CCCN(C)C2)C1 (stereo not drawn)
Result unit: µM
Kd: 71

Attention now shifts to the item below.
Using ATAD2B (Homo sapiens, UniProt Q9ULI0) as the test system, report measured Kd of CCOC(=O)Nc1cc(-c2ccc(C)c(NS(C)(=O)=O)c2)nn2c(C)nnc12 .
30

====

Quick reference for inhibition at 10 µM among some compounds
Target: NSD1 (Homo sapiens)
Construct: purchased DiscoverX BROMOscan (bromodomains); SGC in-house methyltransferase panel
Sequence (Q96L73 whole entry): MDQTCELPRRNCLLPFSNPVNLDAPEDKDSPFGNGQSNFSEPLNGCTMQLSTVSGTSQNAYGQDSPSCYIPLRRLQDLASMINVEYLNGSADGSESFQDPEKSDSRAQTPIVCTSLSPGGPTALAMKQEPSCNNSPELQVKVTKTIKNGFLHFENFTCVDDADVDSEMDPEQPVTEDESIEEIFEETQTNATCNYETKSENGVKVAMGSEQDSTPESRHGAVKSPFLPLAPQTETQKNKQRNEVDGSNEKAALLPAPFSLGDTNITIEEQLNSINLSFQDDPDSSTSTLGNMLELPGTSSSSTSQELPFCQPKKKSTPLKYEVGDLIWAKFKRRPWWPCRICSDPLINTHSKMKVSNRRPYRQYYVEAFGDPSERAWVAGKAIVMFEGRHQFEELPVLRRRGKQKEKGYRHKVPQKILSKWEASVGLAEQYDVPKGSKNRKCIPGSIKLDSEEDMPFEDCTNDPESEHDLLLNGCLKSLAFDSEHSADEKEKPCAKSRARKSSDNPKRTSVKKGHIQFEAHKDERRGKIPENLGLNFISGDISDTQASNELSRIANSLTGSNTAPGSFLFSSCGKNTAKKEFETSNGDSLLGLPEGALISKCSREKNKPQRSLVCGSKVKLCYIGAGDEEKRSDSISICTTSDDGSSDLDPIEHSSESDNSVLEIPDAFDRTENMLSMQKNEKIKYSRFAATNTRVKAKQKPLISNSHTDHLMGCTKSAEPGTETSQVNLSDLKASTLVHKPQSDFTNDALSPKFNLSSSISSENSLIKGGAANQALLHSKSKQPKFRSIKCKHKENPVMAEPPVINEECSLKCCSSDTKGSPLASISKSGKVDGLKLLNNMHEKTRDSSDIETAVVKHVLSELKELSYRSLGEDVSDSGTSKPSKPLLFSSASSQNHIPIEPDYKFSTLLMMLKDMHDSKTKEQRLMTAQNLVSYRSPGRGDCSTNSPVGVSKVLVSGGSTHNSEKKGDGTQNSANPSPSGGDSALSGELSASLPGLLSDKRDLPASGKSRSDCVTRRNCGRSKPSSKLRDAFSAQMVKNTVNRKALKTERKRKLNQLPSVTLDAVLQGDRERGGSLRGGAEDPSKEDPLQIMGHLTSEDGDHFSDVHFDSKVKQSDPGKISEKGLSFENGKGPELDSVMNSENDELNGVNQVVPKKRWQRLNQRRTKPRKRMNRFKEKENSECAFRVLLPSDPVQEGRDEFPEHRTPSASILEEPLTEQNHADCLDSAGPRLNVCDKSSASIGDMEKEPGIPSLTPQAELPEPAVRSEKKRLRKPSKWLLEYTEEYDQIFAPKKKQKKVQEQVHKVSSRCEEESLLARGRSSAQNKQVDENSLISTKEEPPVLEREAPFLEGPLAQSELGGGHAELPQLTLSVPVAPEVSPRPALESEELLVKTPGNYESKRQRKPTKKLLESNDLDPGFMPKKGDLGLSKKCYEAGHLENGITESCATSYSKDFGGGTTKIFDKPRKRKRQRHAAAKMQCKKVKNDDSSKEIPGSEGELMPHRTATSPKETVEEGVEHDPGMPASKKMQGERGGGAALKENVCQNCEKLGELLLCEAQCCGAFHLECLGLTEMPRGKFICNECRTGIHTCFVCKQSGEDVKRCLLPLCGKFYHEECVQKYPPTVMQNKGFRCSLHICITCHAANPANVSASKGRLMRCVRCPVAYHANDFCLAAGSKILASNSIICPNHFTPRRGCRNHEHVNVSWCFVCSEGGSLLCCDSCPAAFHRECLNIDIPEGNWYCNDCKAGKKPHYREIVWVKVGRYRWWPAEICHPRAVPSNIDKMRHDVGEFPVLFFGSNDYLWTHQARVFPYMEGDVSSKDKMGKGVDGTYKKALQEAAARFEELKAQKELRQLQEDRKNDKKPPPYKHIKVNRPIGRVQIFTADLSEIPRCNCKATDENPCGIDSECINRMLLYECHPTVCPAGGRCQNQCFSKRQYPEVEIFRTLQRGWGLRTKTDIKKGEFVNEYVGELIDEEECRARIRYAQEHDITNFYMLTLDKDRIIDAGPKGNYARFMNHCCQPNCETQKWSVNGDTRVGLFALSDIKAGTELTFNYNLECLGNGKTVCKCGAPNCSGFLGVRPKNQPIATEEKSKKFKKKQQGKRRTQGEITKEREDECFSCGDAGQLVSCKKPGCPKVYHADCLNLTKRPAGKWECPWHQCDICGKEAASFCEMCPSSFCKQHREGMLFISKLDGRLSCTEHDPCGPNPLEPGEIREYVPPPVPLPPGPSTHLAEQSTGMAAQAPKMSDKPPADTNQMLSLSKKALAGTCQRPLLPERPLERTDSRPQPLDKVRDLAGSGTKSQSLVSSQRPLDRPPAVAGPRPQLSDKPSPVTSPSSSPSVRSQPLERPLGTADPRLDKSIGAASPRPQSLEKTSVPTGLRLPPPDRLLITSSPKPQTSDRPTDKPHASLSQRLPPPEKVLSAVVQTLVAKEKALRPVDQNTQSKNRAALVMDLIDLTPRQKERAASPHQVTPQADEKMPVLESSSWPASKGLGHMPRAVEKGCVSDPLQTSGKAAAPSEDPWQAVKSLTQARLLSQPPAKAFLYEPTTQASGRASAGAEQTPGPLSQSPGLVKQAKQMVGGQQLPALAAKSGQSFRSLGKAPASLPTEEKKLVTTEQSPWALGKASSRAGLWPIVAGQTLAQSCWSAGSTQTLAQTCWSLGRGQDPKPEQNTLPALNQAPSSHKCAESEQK
Assay: Methyl transferase scintillation proximity assay
Type: biochemical
Conditions: average of two measurements, read-out: MTases Inhibition (%)
Enter the number, and then the unit.

Solved entries:
Molecule: Cc1c(NC(=O)c2cc(C(N)=O)nc3cc(F)ccc23)c(C(F)(F)F)nn1Cc1ccc(C(C)(C)C)cc1
Test target: NSD1 (Homo sapiens)
inhibition at 10 µM: 11%

Molecule: CN1C[C@H](Nc2cnn(C)c(=O)c2Br)C[C@H](c2ccccc2)C1
Test target: NSD1 (Homo sapiens)
inhibition at 10 µM: 4%

Molecule: CO[C@H]1CNC[C@@H](OCC2CCC(F)(F)CC2)[C@@H]1Nc1ncc(-c2cncc(C)c2)c2cc(C)c(=O)[nH]c12
Test target: NSD1 (Homo sapiens)
inhibition at 10 µM: 19%

Answer with the recorded inhibition at 10 µM for the compound listed here: Cc1nnc2c3ccccc3c(N[C@@H](C)[C@H](c3ccccc3)N(C)C)nn12
-6%

====

Quick reference for Tm (C) 10µM, temperature shift among some compounds
Biological target: WDR5 (Homo sapiens)
Assay: Temperature shift assay (non-BRD reader domains)
Format: binding
Settings: 10µM compound
Enter the number, and then the unit.

Solved entries:
Compound: Cc1cc2c(cc1N1C(=O)c3cccc4c(CCCO)ccc(c34)C1=O)n(C)c(=O)n2C [BAY-299]
Tm (C) 10µM, temperature shift: 0.2 Kelvin
//
Compound: CN(C)CCCOc1ccc(-c2cc(NCCCn3cccn3)nc(S(C)(=O)=O)n2)cc1 [TP-238]
Tm (C) 10µM, temperature shift: 0.2 Kelvin
//
Compound: Cc1c(NC(=O)c2cc(C(N)=O)nc3cc(F)ccc23)c(C(F)(F)F)nn1Cc1ccc(C(C)(C)C)cc1 [BAY-588]
Tm (C) 10µM, temperature shift: -7.3 Kelvin
//
Compound: CN1C[C@H](Nc2cnn(C)c(=O)c2Br)C[C@H](c2ccccc2)C1 [GSK4027]
Tm (C) 10µM, temperature shift: 0.2 Kelvin
//
Compound: CCC(=O)N1CCOc2c(cc(-c3ccc(OC)c(OC)c3)cc2OCC2CCCN(C)C2)C1 (stereo not drawn) [I-CBP112]
Tm (C) 10µM, temperature shift: -0.2 Kelvin
//
Compound: CO[C@H]1CNC[C@@H](OCC2CCC(F)(F)CC2)[C@@H]1Nc1ncc(-c2cncc(C)c2)c2cc(C)c(=O)[nH]c12 [GSK8814]
Tm (C) 10µM, temperature shift: 0.2 Kelvin
//
Compound: Cc1nnc2c3ccccc3c(N[C@@H](C)[C@H](c3ccccc3)N(C)C)nn12 [L-Moses]
Tm (C) 10µM, temperature shift: 0.5 Kelvin
//
Compound: Cc1c(NC(=O)c2cc(C(N)=O)nc3cc(F)ccc23)c(C(F)(F)F)nn1Cc1ccc(C#N)cc1 [BAY-876]
Tm (C) 10µM, temperature shift: 0.4 Kelvin

Attention now shifts to the item below.
Answer with the recorded Tm (C) 10µM, temperature shift for the compound listed here: COc1cc(Cl)c(C(=O)N[C@@H](CN[C@H]2CC[C@@H](N)CC2)Cc2ccc(C#N)cc2)cc1-c1ccc(CN[C@H](C)c2ccc(C)cc2)o1 [BAY-850]
0.2 Kelvin
